Settings: in ethanol, 323.15 K
metric: solubility (mole fraction)

molecule	metric	result
OCC1(O)OC[C@@H](O)[C@@H](O)[C@H]1O (stereo partly specified)	solubility (mole fraction)	0.0222

* * *

Conditions: in n-butyl acetate, 318.15 K
metric: solubility (mole fraction)

molecule	quantitative.readout
OCC1(O)OC[C@@H](O)[C@@H](O)[C@H]1O (stereo partly specified)	0.00165

* * *

Conditions: in n-butanol, 293.15 K

compound	solubility (mole fraction)
OCC1(O)OC[C@@H](O)[C@@H](O)[C@H]1O (stereo partly specified)	0.0018

* * *

Details: in acetone, 298.15 K
metric: solubility (mole fraction)

compound	metric	quantitative.readout
OCC1(O)OC[C@@H](O)[C@@H](O)[C@H]1O (stereo partly specified)	solubility (mole fraction)	0.00158
